// provenance: ChEMBL document CHEMBL2321753

System: Stomach
Assay: Biodistribution in ddY mouse stomach assessed per organ at 0.1 to 0.4 uCi, iv after 60 mins by gamma counting
Format: ADME, organism-based
Conditions: in vivo, 1 h
Measurement Kind: Drug uptake (%ID)

| Molecule | Study Target | Drug uptake, %ID |
| --- | --- | --- |
| CCN(CC)CCCC(C)Nc1c2ccc([125I])cc2nc2ccc(OC)cc12 (stereo unspecified) | Stomach | 1.24 |
| COc1ccc2nc3cc([125I])ccc3c(N(C)C)c2c1 | Stomach | 1.4 |
| COc1ccc2nc3cc([125I])ccc3c(OC)c2c1 | Stomach | 4.36 |
| CNc1c2ccc([125I])cc2nc2ccc(OC)cc12 | Stomach | 5.58 |

I. COc1c2ccc([125I])cc2nc2ccc(N(C)C)cc12
II. COc1ccc2nc3cc([125I])ccc3c(N)c2c1
Qu. Looking at recorded values for Drug uptake, does I or II come in lower? Which one? Tell me its label.
Ans. II

----------
Tested on: Liver
Experiment: Biodistribution in ddY mouse liver at 0.1 to 0.4 uCi, iv after 2 mins by gamma counting
Assay type: ADME, organism-based
Settings: in vivo
Measurement Kind: Drug uptake (% ID/g)

// solved cases for Drug uptake follow
| Compound | Drug uptake (% ID/g) |
| --- | --- |
| CNc1c2ccc([125I])cc2nc2ccc(OC)cc12 | 17.25 |
| CCN(CC)CCCC(C)Nc1c2ccc([125I])cc2nc2ccc(OC)cc12 (stereo unspecified) | 8.15 |
| COc1c2ccc([125I])cc2nc2ccc(N(C)C)cc12 | 20.78 |
| COc1ccc2nc3cc([125I])ccc3c(N)c2c1 | 6.24 |

1. COc1ccc2nc3cc([125I])ccc3c(N(C)C)c2c1
2. COc1ccc2nc3cc([125I])ccc3c(OC)c2c1
Qu. Looking at recorded values for Drug uptake, does 1 or 2 come in lower? Which one? Tell me its label.
Ans. 1

----------
Tested on: Heart
Experiment: Biodistribution in ddY mouse heart at 0.1 to 0.4 uCi, iv after 10 mins by gamma counting
Format: ADME, organism-based
Settings: in vivo
Measurement Kind: Drug uptake (% ID/g)

// solved cases for Drug uptake follow
| Compound | Measurement Kind | Recorded Measurement |
| --- | --- | --- |
| CNc1c2ccc([125I])cc2nc2ccc(OC)cc12 | Drug uptake | 2.8 |
| COc1ccc2nc3cc([125I])ccc3c(N)c2c1 | Drug uptake | 4.57 |
| COc1ccc2nc3cc([125I])ccc3c(N(C)C)c2c1 | Drug uptake | 11.2 |

a. CCN(CC)CCCC(C)Nc1c2ccc([125I])cc2nc2ccc(OC)cc12 (stereo unspecified)
b. COc1c2ccc([125I])cc2nc2ccc(N(C)C)cc12
c. COc1ccc2nc3cc([125I])ccc3c(OC)c2c1
Qu. Given 3 compounds, produce a descending ranking by Drug uptake. Field: ranking. Enter the labels in the order requested.
Ans. a, b, c
(a: 13.09 % ID/g, b: 3.78 % ID/g, c: 1.82 % ID/g)

----------
Test system: Lung
Experiment: Biodistribution in ddY mouse lung at 0.1 to 0.4 uCi, iv after 30 mins by gamma counting
Assay type: ADME, organism-based
Conditions: in vivo, 0.5 h
Measurement Kind: Drug uptake (% ID/g)

| Molecule | Recorded Measurement |
| --- | --- |
| CNc1c2ccc([125I])cc2nc2ccc(OC)cc12 | 4.38 |
| COc1ccc2nc3cc([125I])ccc3c(N)c2c1 | 5.04 |
| COc1ccc2nc3cc([125I])ccc3c(N(C)C)c2c1 | 46.47 |
| COc1c2ccc([125I])cc2nc2ccc(N(C)C)cc12 | 6.67 |

1. COc1ccc2nc3cc([125I])ccc3c(OC)c2c1
2. CCN(CC)CCCC(C)Nc1c2ccc([125I])cc2nc2ccc(OC)cc12 (stereo unspecified)
Qu. Looking at recorded values for Drug uptake, does 1 or 2 come in lower? Which one? Tell me its label.
Ans. 1

----------
System: Stomach
Assay: Biodistribution in ddY mouse stomach assessed per organ at 0.1 to 0.4 uCi, iv after 10 mins by gamma counting
Assay type: ADME, organism-based
Conditions: in vivo
Measurement Kind: Drug uptake (%ID)

// solved cases for Drug uptake follow
| Compound | Drug uptake / %ID |
| --- | --- |
| COc1ccc2nc3cc([125I])ccc3c(N)c2c1 | 6.58 |
| CNc1c2ccc([125I])cc2nc2ccc(OC)cc12 | 3.71 |
| COc1ccc2nc3cc([125I])ccc3c(OC)c2c1 | 3.51 |
| CCN(CC)CCCC(C)Nc1c2ccc([125I])cc2nc2ccc(OC)cc12 (stereo unspecified) | 1.33 |

I. COc1ccc2nc3cc([125I])ccc3c(N(C)C)c2c1
II. COc1c2ccc([125I])cc2nc2ccc(N(C)C)cc12
Qu. Exercise: compare I and II ; which one has the greater Drug uptake? Which one? Tell me its label.
Ans. II

----------
Tested on: Stomach
Experiment: Biodistribution in ddY mouse stomach assessed per organ at 0.1 to 0.4 uCi, iv after 30 mins by gamma counting
Type: ADME, organism-based
Conditions: in vivo, 0.5 h
Measurement Kind: Drug uptake (%ID)

| Molecule | Study Target | Recorded Measurement |
| --- | --- | --- |
| COc1ccc2nc3cc([125I])ccc3c(N(C)C)c2c1 | Stomach | 2.21 |

1. CCN(CC)CCCC(C)Nc1c2ccc([125I])cc2nc2ccc(OC)cc12 (stereo unspecified)
2. COc1ccc2nc3cc([125I])ccc3c(OC)c2c1
Qu. Exercise: compare 1 and 2 ; which one has the greater Drug uptake? Which one? Tell me its label.
Ans. 2
(2: 5.97 %ID, 1: 1.48 %ID)

1. COc1c2ccc([125I])cc2nc2ccc(N(C)C)cc12
2. COc1ccc2nc3cc([125I])ccc3c(N)c2c1
Qu. Looking at recorded values for Drug uptake, does 1 or 2 come in lower? Which one? Tell me its label.
Ans. 1
(1: 4.2 %ID, 2: 6.66 %ID)

----------
Test system: Blood
Assay: Biodistribution in ddY mouse blood at 0.1 to 0.4 uCi, iv after 60 mins by gamma counting
Type: ADME, organism-based
Conditions: in vivo, 1 h
Measurement Kind: Drug uptake (% ID/g)

| Compound | Unit Abbrev | Recorded Measurement |
| --- | --- | --- |
| COc1ccc2nc3cc([125I])ccc3c(OC)c2c1 | % ID/g | 1.77 |
| CCN(CC)CCCC(C)Nc1c2ccc([125I])cc2nc2ccc(OC)cc12 (stereo unspecified) | % ID/g | 0.52 |
| COc1ccc2nc3cc([125I])ccc3c(N(C)C)c2c1 | % ID/g | 0.64 |

A. CNc1c2ccc([125I])cc2nc2ccc(OC)cc12
B. COc1c2ccc([125I])cc2nc2ccc(N(C)C)cc12
Qu. Looking at recorded values for Drug uptake, does A or B come in lower? Which one? Tell me its label.
Ans. A
(A: 0.56 % ID/g, B: 5.17 % ID/g)

----------
System: Brain
Experiment: Biodistribution in ddY mouse brain at 0.1 to 0.4 uCi, iv after 10 mins by gamma counting
Assay type: ADME, organism-based
Conditions: in vivo
Measurement Kind: Drug uptake (% ID/g)

// solved cases for Drug uptake follow
| Molecule | Study Target | Unit Abbrev | Drug uptake |
| --- | --- | --- | --- |
| COc1ccc2nc3cc([125I])ccc3c(N(C)C)c2c1 | Brain | % ID/g | 0.26 |
| COc1c2ccc([125I])cc2nc2ccc(N(C)C)cc12 | Brain | % ID/g | 1.96 |

a. CNc1c2ccc([125I])cc2nc2ccc(OC)cc12
b. CCN(CC)CCCC(C)Nc1c2ccc([125I])cc2nc2ccc(OC)cc12 (stereo unspecified)
Qu. Looking at recorded values for Drug uptake, does a or b come in lower? Which one? Tell me its label.
Ans. b

P. COc1ccc2nc3cc([125I])ccc3c(OC)c2c1
Q. COc1ccc2nc3cc([125I])ccc3c(N)c2c1
Qu. Exercise: compare P and Q ; which one has the greater Drug uptake? Which one? Tell me its label.
Ans. Q

----------
Test system: Intestine
Experiment: Biodistribution in ddY mouse intestine at 0.1 to 0.4 uCi, iv after 10 mins by gamma counting
Assay type: ADME, organism-based
Conditions: in vivo
Measurement Kind: Drug uptake (% ID/g)

A. COc1ccc2nc3cc([125I])ccc3c(N)c2c1
B. COc1ccc2nc3cc([125I])ccc3c(N(C)C)c2c1
C. CNc1c2ccc([125I])cc2nc2ccc(OC)cc12
Qu. Order by Drug uptake, smallest first, the items presented above. Field: ranking. Enter the labels in the order requested.
Ans. B, C, A
(B: 3.13 % ID/g, C: 9.11 % ID/g, A: 14.19 % ID/g)

P. COc1c2ccc([125I])cc2nc2ccc(N(C)C)cc12
Q. COc1ccc2nc3cc([125I])ccc3c(OC)c2c1
R. CCN(CC)CCCC(C)Nc1c2ccc([125I])cc2nc2ccc(OC)cc12 (stereo unspecified)
Qu. Given 3 molecules, produce a descending ranking by Drug uptake. Field: ranking. Enter the labels in the order requested.
Ans. P, Q, R
